# protocol.notes: Plasma clearance in po dosed Sprague-Dawley rat
# Assay type: ADME, organism-based

{"molecule": "CC(C)(C)n1cc2c(n1)C(=O)CC1(CCN(C(=O)c3ccc4nc[nH]c4c3)CC1)O2", "CL/F / mL/min/kg": 26}

----------
# study.system: Acetyl-CoA carboxylase 1 (Rattus norvegicus)
pIC50: −log10 of the molar value.
// pIC50 lookup, one value per entry
observed.property: pIC50

{"molecule": "CCn1nc2c(c1C)OC1(CCN(C(=O)c3ccc4[nH]nc(C)c4c3)CC1)CC2=O", "observed.property": "pIC50", "value.measured": 7.54}
{"molecule": "Cc1cc(C(=O)N2CCC3(CC2)CC(=O)c2nn(C(C)(C)C)cc2O3)cc2cn[nH]c12", "observed.property": "pIC50", "value.measured": 8.15}
{"molecule": "Cc1cc(C(=O)N2CCC3(CC2)CC(=O)c2nn(Cc4ccccc4)cc2O3)cc2cn[nH]c12", "observed.property": "pIC50", "value.measured": 6.59}
{"molecule": "CCn1cc2c(n1)C(=O)CC1(CCN(C(=O)c3cc(C)c4[nH]ncc4c3)CC1)O2", "observed.property": "pIC50", "value.measured": 7.21}
{"molecule": "CCn1nc2c(c1C)OC1(CCN(C(=O)c3cc(C)c4[nH]nc(C)c4c3)CC1)CC2=O", "observed.property": "pIC50", "value.measured": 7.92}
{"molecule": "CCn1nc2c(c1C)OC1(CCN(C(=O)c3cc(C)c4nc[nH]c4c3)CC1)CC2=O", "observed.property": "pIC50", "value.measured": 7.31}
{"molecule": "CCc1n[nH]c2ccc(C(=O)N3CCC4(CC3)CC(=O)c3nn(CC)c(C)c3O4)cc12", "observed.property": "pIC50", "value.measured": 7.44}

----------
# protocol.notes: Permeability across dog RRCK cells
# Assay type: ADME, cell-based, Canis lupus familiaris, MDCKII-LE
# measurement.conditions: MDCK, read-out: permeability

{"molecule": "CC(C)(C)n1cc2c(n1)C(=O)CC1(CCN(C(=O)c3ccc4nc[nH]c4c3)CC1)O2", "Papp": "10.9 ×10⁻⁶ cm/s"}

----------
Listing of recorded CLint scaled by entry.
# protocol.notes: Intrinsic clearance in human liver microsomes
# Assay type: ADME, Microsome
# measurement.conditions: read-out: CLH
observed.property: CLint scaled (mL/min/kg)

{"compound": "Cc1n[nH]c2c(C)cc(C(=O)N3CCC4(CC3)CC(=O)c3nn(C5CCOC5)c(C)c3O4)cc12 (configuration not stated)", "limit.qualifier": "=", "value.measured": 23.1}
{"compound": "Cc1cc(C(=O)N2CCC3(CC2)CC(=O)c2nn(C(C)(C)C)cc2O3)cc2[nH]cnc12", "limit.qualifier": "=", "value.measured": 12.4}
{"compound": "Cc1nc2c(C)cc(C(=O)N3CCC4(CC3)CC(=O)c3nn(C(C)(C)C)cc3O4)cc2[nH]1", "limit.qualifier": "=", "value.measured": 15.1}
{"compound": "Cc1n[nH]c2c(C)cc(C(=O)N3CCC4(CC3)CC(=O)c3nn(C(C)C)cc3O4)cc12", "limit.qualifier": "<", "value.measured": 8}
{"compound": "CC(C)(C)n1cc2c(n1)C(=O)CC1(CCN(C(=O)c3ccc4nc[nH]c4c3)CC1)O2", "limit.qualifier": "<", "value.measured": 8}
{"compound": "Cc1cc2c(cc1C)C(=O)CC1(CCN(C(=O)c3cc(C)c4[nH]ncc4c3)CC1)O2", "limit.qualifier": "=", "value.measured": 68}
{"compound": "Cn1ncc2ccc(C(=O)N3CCC4(CC3)CC(=O)c3nn(C(C)(C)C)cc3O4)cc21", "limit.qualifier": "=", "value.measured": 13.1}

Origin of values: ChEMBL document CHEMBL1955747
